# testSystem: human recombinant heparanase (h-hpa) (Homo sapiens)
# Sequence (Q9Y251 158-543 limits assumed): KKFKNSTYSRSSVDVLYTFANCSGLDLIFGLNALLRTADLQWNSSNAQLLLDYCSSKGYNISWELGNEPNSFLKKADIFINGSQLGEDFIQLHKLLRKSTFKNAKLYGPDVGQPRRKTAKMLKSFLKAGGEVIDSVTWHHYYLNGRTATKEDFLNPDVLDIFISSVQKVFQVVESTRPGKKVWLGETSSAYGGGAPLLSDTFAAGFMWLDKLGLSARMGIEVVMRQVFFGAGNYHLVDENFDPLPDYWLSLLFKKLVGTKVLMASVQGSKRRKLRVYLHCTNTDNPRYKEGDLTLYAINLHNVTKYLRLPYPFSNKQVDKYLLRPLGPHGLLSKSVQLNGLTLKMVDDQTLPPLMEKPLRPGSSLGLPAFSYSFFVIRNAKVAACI
# Sequence (Q9Y251 36-109 limits assumed): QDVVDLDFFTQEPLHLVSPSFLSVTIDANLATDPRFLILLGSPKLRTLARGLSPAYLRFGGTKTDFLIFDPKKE
# assayExplanation: In vitro dimethylmethylene blue (DMB) assay for heparanase activity
measuredParameter: IC50 (µM)
Write the answer as a number in µM, unit excluded.

- CCCCCCCCCCCCCCCCCCOc1ccc(S(=O)(=O)N/N=C2\N(CC)c3ccccc3C2(C)C)cc1C(=O)O: 0.95

Query: I'd like to know its IC50. The molecule in question is CCCCCCCCCCCC1OC1CCCCC(=O)Nc1cc(C(=O)O)ccc1Oc1cc(C(N)=O)cc(C(=O)O)c1 (stereo not drawn)
Reply: 1

Query: Do the same for CCCCCCCCCCCC1SC1CCCCC(=O)Nc1cc(C(=O)O)ccc1Oc1cc(C(=O)O)cc(C(=O)O)c1 (stereo not drawn) please
Reply: 0.5
